The origin of these recorded values is patent US11884676B2.

- SYSTEM_UNDER_TEST: Human M4 (Homo sapiens)
- Construct: expressed in transfected cells
- Sequence (P08173 whole entry): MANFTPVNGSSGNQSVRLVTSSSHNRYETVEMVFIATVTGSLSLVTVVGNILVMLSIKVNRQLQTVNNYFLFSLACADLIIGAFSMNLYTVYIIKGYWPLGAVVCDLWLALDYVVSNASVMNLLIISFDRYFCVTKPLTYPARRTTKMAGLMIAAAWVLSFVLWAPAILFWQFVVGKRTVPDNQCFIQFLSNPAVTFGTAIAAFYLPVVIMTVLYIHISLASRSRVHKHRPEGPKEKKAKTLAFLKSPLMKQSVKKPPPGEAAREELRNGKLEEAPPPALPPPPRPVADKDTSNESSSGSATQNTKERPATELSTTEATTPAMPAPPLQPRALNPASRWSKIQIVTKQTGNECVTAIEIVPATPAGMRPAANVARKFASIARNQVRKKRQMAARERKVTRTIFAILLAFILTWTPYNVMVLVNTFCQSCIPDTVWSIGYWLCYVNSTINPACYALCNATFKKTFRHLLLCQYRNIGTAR
- MEASUREMENT_NOTES: mAChR M4 cell-based functional assay (calcium flux, PAM mode)
- RECORDED_CONDITIONS: CHO-K1, % ACh maximum at 30 μM; hM4-Gqi5 CHO-K1 cells
Field 'label' (enum: Condition met / Condition not met). Set to Condition met when Emax at 30 µM is strictly under 90%; else Condition not met.

* Cc1cc2nccc(=O)n2nc1N1CCC(Oc2ccc3c(c2)OCCO3)CC1 [Compound 26] | Condition met
* [2H]C1(Oc2ccc3c(c2)OC([2H])([2H])C([2H])([2H])O3)CCN(c2nn3c(=O)cc(C)nc3c(C)c2C)CC1 [Compound 94] | Condition met
* Cc1cc2ncc(Cl)c(=O)n2nc1N1CCC(Oc2ccc3c(c2)OCCO3)CC1 [Compound 31] | Condition met
* [2H]C1(Oc2ccc3c(c2)OC([2H])([2H])C([2H])([2H])O3)CCN(c2nn3c(=O)cc(C(F)(F)F)nc3c(C)c2C)CC1 [Compound 95] | Condition met
* COc1c(C)c(N2CCC(Oc3ccc4c(c3)OCCO4)CC2)nn2c(=O)ccnc12 [Compound 126] | Condition not met
* [2H]C1(Oc2ccc3c(c2)OC([2H])([2H])C([2H])([2H])O3)CCN(c2nn3c(=O)cc(CC4CCCC4)nc3c(C)c2C)CC1 [Compound 101] | Condition met
* Cc1cc2nc(C)c(F)c(=O)n2nc1N1CC[C@@H](Oc2ccc3c(c2)OCCO3)[C@H](F)C1 [Compound 36] | Condition not met
* [2H]C1([2H])Oc2cc(O[C@H]3CCN(c4nn5c(=O)ccnc5cc4C)[C@H](C)C3)cc(F)c2OC1([2H])[2H] [Compound 130] | Condition not met
